This collection of values is drawn from ChEMBL document CHEMBL4229507.

Tested on: Influenza A virus
test: Antiviral activity against Influenza A virus (A/Puerto Rico/8/1934(H1N1)) infected in MDCK cells after 24 hrs by immunofocus assay
Type: functional, organism-based
reported_endpoint: EC50 (µM)
One number for each entry, in µM.

Q: Look up EC50: O=c1[nH]c(-c2ccc(F)cc2)c(-c2ccc(-c3nnn[nH]3)cc2)cc1O
Ans: 11.4
